# test-protocol: clinical
# assay-context: male, human, in vivo, 2 mg
readout-name: Tmax (min)
All answers are understood in min, so give the number only.

Prompt: Which Tmax value is on record for `CN1CCc2cccc3c2[C@H]1Cc1ccc(O)c(O)c1-3` ?
Completion: 44.4

====

# test-protocol: clinical
# assay-context: male, human, in vivo, 5 mg, cmax, Mean
readout-name: Cmax

Prompt: May I ask what Cmax has been recorded for CN1CCc2cccc3c2[C@H]1Cc1ccc(O)c(O)c1-3 [Apomorphine] ?
Completion: ~1.7 ng/mL

====

# test-protocol: clinical
# assay-context: male, human, in vivo, 6 mg
readout-name: AUC(0-inf) (ng·h/mL)
Expressed in ng·h/mL, but write only the number.

Prompt: Give its AUC(0-inf) value. Item: `CN1CCc2cccc3c2[C@H]1Cc1ccc(O)c(O)c1-3`
Completion: 3.6
